target: 3',5'-cyclic-AMP phosphodiesterase 4D (Homo sapiens)
Sequence (Q08499 whole entry): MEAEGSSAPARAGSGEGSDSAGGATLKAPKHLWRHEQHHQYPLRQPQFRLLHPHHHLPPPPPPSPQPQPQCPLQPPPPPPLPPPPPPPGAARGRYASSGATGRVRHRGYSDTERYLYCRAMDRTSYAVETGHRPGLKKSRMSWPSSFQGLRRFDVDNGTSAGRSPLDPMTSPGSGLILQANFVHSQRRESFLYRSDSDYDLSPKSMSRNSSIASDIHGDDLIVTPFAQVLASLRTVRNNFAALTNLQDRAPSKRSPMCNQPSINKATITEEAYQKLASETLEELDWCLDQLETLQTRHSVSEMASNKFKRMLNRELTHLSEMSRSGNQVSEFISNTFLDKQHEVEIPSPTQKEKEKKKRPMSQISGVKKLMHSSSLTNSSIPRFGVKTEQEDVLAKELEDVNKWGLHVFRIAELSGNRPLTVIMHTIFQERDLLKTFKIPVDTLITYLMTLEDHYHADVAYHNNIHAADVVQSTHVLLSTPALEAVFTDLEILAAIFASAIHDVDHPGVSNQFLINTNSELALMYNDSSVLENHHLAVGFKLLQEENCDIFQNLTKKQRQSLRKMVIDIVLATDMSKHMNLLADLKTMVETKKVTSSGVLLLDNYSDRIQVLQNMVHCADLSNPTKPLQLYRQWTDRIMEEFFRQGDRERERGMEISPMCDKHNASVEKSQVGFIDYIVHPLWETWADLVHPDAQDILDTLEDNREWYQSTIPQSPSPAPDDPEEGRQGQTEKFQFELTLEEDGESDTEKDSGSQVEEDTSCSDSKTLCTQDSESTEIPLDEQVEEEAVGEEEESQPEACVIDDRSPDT
readout.type: IC50

INSERT INTO results (line_notation, target_under_test, result) VALUES
  ('CCCCOc1cncc(-c2nnc3c(C)nc4ccc(CN5CCOCC5)cc4n23)c1', '3'',5''-cyclic-AMP phosphodiesterase 4D (Homo sapiens)', '> 10 µM');

---

experiment: Ratio of drug level in brain to plasma of Sprague-Dawley rat at 10 mg/kg, sc after 1 hr; type: ADME, organism-based; parameters: dose 10 mg/kg, route subcutaneous; details: read-out: BPR
readout.type: Kp at 1 h

INSERT INTO results (line_notation, quantitative_result) VALUES
  ('CCCCOc1cncc(-c2nnc3c(C)nc4ccc(CN5CCOCC5)cc4n23)c1', 1.1);

---

Biological target: cAMP and cAMP-inhibited cGMP 3',5'-cyclic phosphodiesterase 10A (Rattus norvegicus, UniProt Q9QYJ6)
Sequence (Q9QYJ6 whole entry): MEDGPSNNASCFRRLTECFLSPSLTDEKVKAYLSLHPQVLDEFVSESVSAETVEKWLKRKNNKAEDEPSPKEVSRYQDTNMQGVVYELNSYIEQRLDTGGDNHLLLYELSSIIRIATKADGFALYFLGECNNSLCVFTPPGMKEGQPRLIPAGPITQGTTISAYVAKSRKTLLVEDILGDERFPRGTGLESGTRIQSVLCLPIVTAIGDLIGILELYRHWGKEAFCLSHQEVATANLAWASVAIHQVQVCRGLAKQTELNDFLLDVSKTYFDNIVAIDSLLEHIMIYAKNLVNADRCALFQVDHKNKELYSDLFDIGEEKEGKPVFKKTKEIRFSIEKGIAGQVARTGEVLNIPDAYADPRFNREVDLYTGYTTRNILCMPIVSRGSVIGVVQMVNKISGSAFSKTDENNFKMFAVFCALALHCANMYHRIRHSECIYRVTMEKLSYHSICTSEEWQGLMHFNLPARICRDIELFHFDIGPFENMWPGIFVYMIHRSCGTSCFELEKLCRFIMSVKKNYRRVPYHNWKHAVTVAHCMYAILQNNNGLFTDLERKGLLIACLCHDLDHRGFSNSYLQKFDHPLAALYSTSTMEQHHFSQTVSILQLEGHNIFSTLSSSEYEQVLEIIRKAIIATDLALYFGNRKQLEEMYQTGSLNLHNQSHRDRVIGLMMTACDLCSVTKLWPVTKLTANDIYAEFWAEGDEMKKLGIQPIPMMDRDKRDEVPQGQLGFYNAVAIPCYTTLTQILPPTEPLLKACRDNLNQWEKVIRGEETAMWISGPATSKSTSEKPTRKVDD
Test: Inhibition of rat PDE10A expressed in Sf9 cells incubated for 60 mins using [3H]-cAMP substrate by scintillation counting method
pIC50: −log10 of the molar value.
readout.type: pIC50

INSERT INTO assay_data (line_notation, reading_qualifier, quantitative_result) VALUES
  ('Cc1nc2ccc(CN3CCOCC3)cc2n2c(-c3cncc(OC(C)C)c3)nnc12', '<', 5.00),
  ('COc1ccc(Cl)c(-c2nnc3c(C)nc4ccc(CN5CCOCC5)cc4n23)c1', '=', 6.97);

---

test: Half life in Sprague-Dawley rat at 10 mg/kg, sc; format: ADME, organism-based; design: dose 10 mg/kg, route subcutaneous; conditions: in vivo
readout.type: half-life (h)

INSERT INTO assay_data (line_notation, quantitative_result) VALUES
  ('CCCCOc1cncc(-c2nnc3c(C)nc4ccc(CN5CCOCC5)cc4n23)c1', 1);

Origin of values: ChEMBL document CHEMBL3351311
